assay: Cytotoxicity against rat VSMC assessed as decrease in cell viability at 10 to 30 uM after 48 hrs by MTT assay; format: cell-based
readout-name: Activity

CC(C)[C@@H]1C[C@@H]2OC[C@]13CC[C@@]1(C)[C@H]4C(=CC[C@]1(C)[C@@H]23)[C@@]1(C)CC[C@H](O)C(C)(C)[C@@H]1C[C@@H]4O :: Toxic
CC(=O)O[C@@H]1C[C@@H](C(C)C)[C@]2(C)CC[C@@]3(C)[C@H]4C(=CC[C@]3(C)[C@@H]12)[C@@]1(C)C=CC(=O)C(C)(C)[C@@H]1C[C@@H]4O :: Toxic
CC(=O)O[C@@H]1C[C@@H](C(C)C)[C@]2(C)CC[C@@]3(C)[C@H]4C(=CC[C@]3(C)[C@@H]12)[C@@]1(C)CC[C@H](O)C(C)(C)[C@@H]1C[C@@H]4O :: Toxic
